The next entries give measured MIC for Streptococcus haemolyticus A 266.

Here is how some compounds turned out for MIC.
smiles=Cc1cc(NS(=O)(=O)NC(=O)N[C@@H](C(=O)N[C@@H]2C(=O)N3[C@@H]2SC(C)(C)[C@@H]3C(=O)O)c2ccccc2)no1 meas_value="1.5 µg/mL"
smiles=CC1(C)S[C@@H]2[C@H](NC(=O)[C@H](NC(=O)NS(=O)(=O)Nc3cccnc3)c3ccccc3)C(=O)N2[C@H]1C(=O)O meas_value="0.12 µg/mL"

Turning now to a further compound:
MIC of `Cc1noc(NS(=O)(=O)NC(=O)N[C@@H](C(=O)N[C@@H]2C(=O)N3[C@@H]2SC(C)(C)[C@@H]3C(=O)O)c2ccccc2)c1C` , assay on Streptococcus haemolyticus A 266, is 0.12 µg/mL

---

MIC overview
# System: Proteus rettgeri A 821
# Procedure text: micro serial dilution test, MIC
# Assay type: cell-based
# Details: Providencia rettgeri, A821; micro serial dilution (between brackets), 30°C or 37°C, about 18 hours
Remember to quote the unit after the number.

compound=CN1CCCC1=NS(=O)(=O)N[C@@H](C(=O)N[C@@H]1C(=O)N2[C@@H]1SC(C)(C)[C@@H]2C(=O)O)c1ccccc1 meas_value="0.9 µg/mL"
compound="CC1(C)S[C@@H]2[C@H](NC(=O)C(C(=O)O)c3ccccc3)C(=O)N2[C@H]1C(=O)O (some centres unmarked) [carbenicillin, reference compound]" meas_value="0.12 µg/mL"
compound=CC(=NS(=O)(=O)N[C@@H](C(=O)N[C@@H]1C(=O)N2[C@@H]1SC(C)(C)[C@@H]2C(=O)O)c1ccccc1)N(C)C meas_value="0.6 µg/mL"
compound=CC1(C)S[C@@H]2[C@H](NC(=O)[C@H](NC(=O)NS(=O)(=O)NCc3ccccc3)c3ccccc3)C(=O)N2[C@H]1C(=O)O meas_value="0.025 µg/mL"

Turning now to a further compound:
# compound Cc1nnc(SCC2=C(C(=O)O)N3C(=O)[C@@H](NC(=O)Cn4cnnn4)[C@H]3SC2)s1 [cephazolin, reference compound] ; its MIC = 1.2 µg/mL

---

# System: Pseudomonas aeruginosa 2396
# Assay type: cell-based
# Details: agar serial dilution, 24 hours at 37°C
Quantity name: MIC (µg/mL)
Report the figure in µg/mL without appending any unit label.

compound="CCOS(=O)(=O)NC(=O)N[C@@H](C(=O)N[C@@H]1C(=O)N2[C@@H]1SC(C)(C)[C@@H]2C(=O)O)c1ccccc1 [VI]" assay_system="Pseudomonas aeruginosa 2396" quantity_name=MIC display_unit=µg/mL meas_value=25

# compound Cc1cc(NS(=O)(=O)NC(=O)N[C@@H](C(=O)N[C@@H]2C(=O)N3[C@@H]2SC(C)(C)[C@@H]3C(=O)O)c2ccccc2)no1 [XII] ; its MIC = 25

# compound CC1(C)S[C@@H]2[C@H](NC(=O)[C@H](NC(=O)NS(=O)(=O)Nc3cccnc3)c3ccccc3)C(=O)N2[C@H]1C(=O)O [XI] ; its MIC = 50

# compound CC(C)N(C(C)C)S(=O)(=O)NC(=O)N[C@@H](C(=O)N[C@@H]1C(=O)N2[C@@H]1SC(C)(C)[C@@H]2C(=O)O)c1ccccc1 [VIII] ; its MIC = 50

# compound CCOC(=O)CNS(=O)(=O)NC(=O)N[C@@H](C(=O)N[C@@H]1C(=O)N2[C@@H]1SC(C)(C)[C@@H]2C(=O)O)c1ccccc1 [X] ; its MIC = 100
